- Tested on: KRAS PDC multicell spheroid viability
- assay_name: Anticancer human tumor 521955-158-R6-J3-PDC patient-derived pancreatic carcinoma cell line growth inhibition [KRAS2]
- assay_setup: second compound 0.316 µM; first compound 0.316 µM; active compounds read low
measured_quantity: viability, T/C (%)
All answers are understood in %, so give the number only.

query: Given COc1cc(Nc2ncc3c(n2)-c2ccc(Cl)cc2C(c2c(F)cccc2OC)=NC3)ccc1C(=O)O + C=CC(=O)N1CCN(c2nc(OCC3CCCN3C)nc3c2CCN(c2cccc4cccc(C)c24)C3)CC1CC#N , state its recorded viability, T/C.
result: 79.8

query: For the compound CC1OCC2(CCN(c3cnc(Sc4ccnc(N)c4Cl)c(N)n3)CC2)C1N (stereo not given) + C=CC(=O)N1CCN(c2nc(=O)n(-c3c(C)ccnc3C(C)C)c3nc(-c4c(O)cccc4F)c(F)cc23)C(C)C1 , what viability, T/C is on record?
result: 91.9

query: Recorded viability, T/C for CC1COCCN1c1cc(-c2ccnn2C)c2ccnc(-c3ccn[nH]3)c2n1 (stereo not given) + C=CC(=O)N1CCN(c2nc(=O)n(-c3c(C)ccnc3C(C)C)c3nc(-c4c(O)cccc4F)c(F)cc23)C(C)C1 , please?
result: 95.1

query: Looking for the measured viability, T/C of CCN1CCN(Cc2ccc(Nc3ncc(F)c(-c4cc(F)c5nc(C)n(C(C)C)c5c4)n3)nc2)CC1 + COc1cc2nc(C)nc(NC(C)c3cc(N)cc(C(F)(F)F)c3)c2cc1OC1CCOC1 , can you help?
result: 71.8

query: For CC(C)NCC(C(=O)N1CCN(c2ncnc3c2C(C)CC3O)CC1)c1ccc(Cl)cc1 (stereo not given) + CC1OCC2(CCN(c3cnc(Sc4ccnc(N)c4Cl)c(N)n3)CC2)C1N , what is its reported viability, T/C?
result: 61.1

* * *

- Tested on: KRAS PDC multicell spheroid viability
- assay_name: Anticancer human tumor 521955-158-R6-J3-PDC cell line growth inhibition [KRAS2];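 note: drug exposure lasted seven days; 100% = DMSO vehicle wells and lower means fewer viable cells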
- assay_setup: second compound 3.16 µM; first compound 0.316 µM; active compounds read low
- Source text: Multicellular complex tumor spheroid response to RAS pathway inhibitors in combination with a targeted agents in patient-derived cell lines with oncogenic KRAS variants from multiple cancer types A high-throughput screen of multi-cell type tumor spheroids was designed to identify active combinations of targeted small molecules and KRAS pathway inhibitors. […] Compounds. […] If the clinical Cmax for an agent had not been determined, the highest concentration tested was 10 microM. […]
measured_quantity: viability, T/C (%)
Write it as a number; the unit % goes unstated.

query: // viability, T/C lookup, key: COc1cc(Nc2ncc3c(n2)-c2ccc(Cl)cc2C(c2c(F)cccc2OC)=NC3)ccc1C(=O)O + C=CC(=O)N1CCN(c2nc(=O)n(-c3c(C)ccnc3C(C)C)c3nc(-c4c(O)cccc4F)c(F)cc23)C(C)C1
result: 77.4

query: Query (molecule): CCN1CCN(Cc2ccc(Nc3ncc(F)c(-c4cc(F)c5nc(C)n(C(C)C)c5c4)n3)nc2)CC1 + C=CC(=O)N1CCN(c2nc(OCC3CCCN3C)nc3c2CCN(c2cccc4cccc(C)c24)C3)CC1CC#N ; field requested: viability, T/C
result: 15.3

query: // lookup viability, T/C for CC1COCCN1c1cc(-c2ccnn2C)c2ccnc(-c3ccn[nH]3)c2n1 (stereo not given) + C=CC(=O)N1CCN(c2nc(OCC3CCCN3C)nc3c2CCN(c2cccc4cccc(C)c24)C3)CC1CC#N
result: 36.5

query: If you can, please state the reported viability, T/C value of CC1OCC2(CCN(c3cnc(Sc4ccnc(N)c4Cl)c(N)n3)CC2)C1N (stereo not given) + C=CC(=O)N1CCN(c2nc(=O)n(-c3c(C)ccnc3C(C)C)c3nc(-c4c(O)cccc4F)c(F)cc23)C(C)C1 .
result: 91.8

query: What value of viability, T/C has been recorded for this entry: CCN1CCN(Cc2ccc(Nc3ncc(F)c(-c4cc(F)c5nc(C)n(C(C)C)c5c4)n3)nc2)CC1 + CC1OCC2(CCN(c3cnc(Sc4ccnc(N)c4Cl)c(N)n3)CC2)C1N
result: 83.6
